Tested on: L1210 leukemia ip in BDF1 mice, survival T/C
Assay: NCI In Vivo Anticancer Drug Screen. Data for tumor model L1210 Leukemia (intraperitoneal) in B6D2F1 (BDF1) mice
Conditions: endpoint: mean survival time; dose: 400.0 mg/kg/injection; schedule: Q04DX002 (ip); vehicle: Klucel (hydroxypropylcellulose) (HPC); higher = longer survival
Toxic doses and inconclusive results are not listed.
Provide the reported T/C of each item.

Query: What value of T/C has been reported for the following molecule? "N#CCCN(CCC#N)[N+](=O)[O-]"
Reply: 87 % of control

Query: What value of T/C has been reported for the following molecule? CCCCCC(=O)N1CC(C)OC(C)C1 (stereo not given)
Reply: 87 % of control

Query: What value of T/C has been reported for the following molecule? "CCCCCCCCCCCCSC(=O)Nc1ccc(C(=O)OCC)cc1"
Reply: 92 % of control

Query: What value of T/C has been reported for the following molecule? COc1ccc(C2CC(O)C3CCC2C3)cc1 (stereo not given)
Reply: 93 % of control

Query: What value of T/C has been reported for the following molecule? "CC/C(=C(\c1ccccc1)c1ccc(OCCN(C)C)cc1)c1ccccc1"
Reply: 100 % of control

Query: What value of T/C has been reported for the following molecule? CCOC(=O)C(C(=O)OCC)C(CC(=O)C1CC1)c1ccccc1 (stereo not given)
Reply: 111 % of control

Query: What value of T/C has been reported for the following molecule? "CCn1c(C)nc2cc(N=Cc3ccc(N(CCCl)CCCl)cc3F)ccc21"
Reply: 91 % of control

Query: What value of T/C has been reported for the following molecule? "CCOC(=O)CCc1c(C(=O)OCC)[nH]c2ccc(Cl)cc12"
Reply: 96 % of control

Query: What value of T/C has been reported for the following molecule? "CN(C)C(=S)S/C=C\C(=O)O"
Reply: 109 % of control

Query: What value of T/C has been reported for the following molecule? "CC(=O)c1cccc(NC(=O)Nc2nccs2)c1"
Reply: 96 % of control

Query: What value of T/C has been reported for the following molecule? "CCOP(=O)(OCC)Oc1c(Cl)c(Cl)c(Cl)c(Cl)c1Cl"
Reply: 107 % of control

Query: What value of T/C has been reported for the following molecule? CC(C)OC(=S)SC(C(=O)c1ccccc1)c1ccccc1 (stereo not given)
Reply: 91 % of control

Query: What value of T/C has been reported for the following molecule? "c1cc[c]([Pb]([c]2ccccc2)([c]2ccccc2)[c]2ccccc2)cc1"
Reply: 101 % of control

Query: What value of T/C has been reported for the following molecule? "CC(C)=C1N=C(c2ccccc2)OC1=O"
Reply: 111 % of control

Query: What value of T/C has been reported for the following molecule? "CCOC(=O)c1nc(N2CCOCC2)c2ccccc2n1"
Reply: 95 % of control

Query: What value of T/C has been reported for the following molecule? "O=C(NCc1ccc(Cl)cc1)NC1CCCCC1"
Reply: 106 % of control

Query: What value of T/C has been reported for the following molecule? "COc1cc(OC)c(NC(=O)C(Cl)(Cl)Cl)cc1Cl"
Reply: 95 % of control

Query: What value of T/C has been reported for the following molecule? "C(=C/c1ccccn1)/c1ccccc1"
Reply: 122 % of control

Query: What value of T/C has been reported for the following molecule? "CCCCCCCCCCCCCCCCCCNC(=O)Nc1ccc(OC)cc1OC"
Reply: 90 % of control

Query: What value of T/C has been reported for the following molecule? "Cc1c(NC(=O)Nc2cc(C(F)(F)F)ccc2Cl)c(=O)n(-c2ccccc2)n1C"
Reply: 105 % of control

Query: What value of T/C has been reported for the following molecule? "CCOC(=O)CCCc1c(C)[nH]c2ccc(Cl)cc12"
Reply: 91 % of control

Query: What value of T/C has been reported for the following molecule? "Cc1ccc(Cl)cc1NC(=O)c1ccccc1F"
Reply: 101 % of control

Query: What value of T/C has been reported for the following molecule? "Cc1ccc(NC(=O)COc2ccc(Cl)cc2Cl)cc1NC(=O)COc1ccc(Cl)cc1Cl"
Reply: 100 % of control

Query: What value of T/C has been reported for the following molecule? O=C1c2ccccc2C2(Br)C(=O)c3ccccc3C12Br (stereo not given)
Reply: 93 % of control

Query: What value of T/C has been reported for the following molecule? CC(=O)OC1CCC2(C)C(=CC=C3C2CCC2(C)C(C(C)=O)CCC32)C1 (stereo not given)
Reply: 104 % of control
